biological target: cathepsin L (Homo sapiens, UniProt P07711)
Sequence (P07711 114-333): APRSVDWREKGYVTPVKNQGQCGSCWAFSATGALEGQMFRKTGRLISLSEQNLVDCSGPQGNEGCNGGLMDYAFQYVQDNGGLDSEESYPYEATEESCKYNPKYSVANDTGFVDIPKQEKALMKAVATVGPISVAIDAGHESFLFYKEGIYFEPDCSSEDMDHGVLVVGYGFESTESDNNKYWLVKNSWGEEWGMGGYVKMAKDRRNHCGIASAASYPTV
READOUT: pKi
// field semantics: pKi = negative decimal log of concentration (mol/L)

Consider the following illustrative entries.
COMPOUND: CC(=O)N[C@@H](CC(C)C)C(=O)N[C@@H](CC(C)C)C(=O)NC(CCCN=C(N)N)C(=O)c1nnc(-c2ccccc2)o1 (some centres unmarked) [CQ-0002]
pKi: 8.22

COMPOUND: CC(=O)N[C@@H](CC(C)C)C(=O)N[C@@H](CC(C)C)C(=O)NC(C)C(=O)c1noc(C)n1 (some centres unmarked) [CQ-0004]
pKi: 7.21

COMPOUND: CC(=O)N[C@@H](CC(C)C)C(=O)N[C@@H](CC(C)C)C(=O)N[C@H](C=O)CCCNC(=N)N [Leupeptin, reference compound]
pKi: 9.21

Now for another entry.
Problem: pKi for CC(=O)N[C@@H](CC(C)C)C(=O)N[C@@H](CC(C)C)C(=O)NC(CCCN=C(N)N)C(=O)c1noc(C)n1 (some centres unmarked) [CQ-0008] ?
Result: 8.15

* * *

molecular target: FLICE (Mch5, Caspase 8) (Homo sapiens, UniProt Q14790); assay: Caspase inhibition, photometric, Ac-DEVD-pNA; assay type: biochemical; details: 20 μM Ac-DEVD-pNA, 37° C.; read-out: Ki, FLICE (Mch5, Caspase 8)
Sequence (Q14790 217-374 limits assumed, species assumed): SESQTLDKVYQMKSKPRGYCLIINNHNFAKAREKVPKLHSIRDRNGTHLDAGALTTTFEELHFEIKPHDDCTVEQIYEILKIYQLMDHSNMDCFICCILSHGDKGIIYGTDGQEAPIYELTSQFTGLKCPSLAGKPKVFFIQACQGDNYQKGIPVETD
Sequence (Q14790 385-479 limits assumed, species assumed): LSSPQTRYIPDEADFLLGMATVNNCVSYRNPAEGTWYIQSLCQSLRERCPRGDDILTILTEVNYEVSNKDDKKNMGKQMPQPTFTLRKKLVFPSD
pKi: −log10 of the molar value.
READOUT: pKi

Examples with answers:
COMPOUND: CC(=O)N[C@@H](Cc1ccc(O)cc1)C(=O)N[C@H](C(=O)N[C@@H](C)C(=O)N[C@H](C=O)CC(=O)O)C(C)C [Ac-YVAD-CHO, reference compound]
pKi: 5.43
//
COMPOUND: CC(=O)N[C@@H](CC(=O)O)C(=O)N[C@H](C(=O)N[C@@H](CCC(=O)O)C(=O)NC(CC(=O)O)C(=O)c1nnc(-c2ccccc2)o1)C(C)C (stereo partly drawn)
pKi: ≥ 7.52

Alright, here's another compound for you.
Problem: Look up pKi: CC(=O)N[C@@H](Cc1ccc(O)cc1)C(=O)N[C@H](C(=O)N[C@@H](C)C(=O)NC(CC(=O)O)C(=O)c1nnc(-c2ccccc2)o1)C(C)C (stereo partly drawn)
Result: ≥ 7.70

* * *

Read-out record for Mch2 (Caspase 6) (Homo sapiens, UniProt P55212): Ki
Report only the number, with the unit µM understood.

COMPOUND: CC(=O)N[C@@H](Cc1ccc(O)cc1)C(=O)N[C@H](C(=O)N[C@@H](C)C(=O)N[C@H](C=O)CC(=O)O)C(C)C [Ac-YVAD-CHO, reference compound]
NUMERIC VALUE: 100

Problem: Lab note: need Ki with Mch2 (Caspase 6) (Homo sapiens, UniProt P55212) for entry CC(=O)N[C@@H](CC(=O)O)C(=O)N[C@H](C(=O)N[C@@H](CCC(=O)O)C(=O)NC(CC(=O)O)C(=O)c1nnc(-c2ccccc2)o1)C(C)C (some centres unmarked) [CQ-0011] , please look it up.
Sequence (P55212 24-179 limits assumed, species assumed): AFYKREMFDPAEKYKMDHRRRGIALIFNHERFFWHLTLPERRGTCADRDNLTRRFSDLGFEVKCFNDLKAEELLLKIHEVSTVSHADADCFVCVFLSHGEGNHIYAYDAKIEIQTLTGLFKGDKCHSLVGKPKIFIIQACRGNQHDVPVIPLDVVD
Sequence (P55212 194-293 limits assumed, species assumed): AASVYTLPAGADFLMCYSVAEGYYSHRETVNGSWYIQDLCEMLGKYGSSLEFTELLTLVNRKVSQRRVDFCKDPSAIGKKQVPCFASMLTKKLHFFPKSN
Result: 6.7

* * *

Listing of recorded IC50 by entry.
target: ICE (Caspase 1) (Homo sapiens, UniProt P29466); construct: endogenous in cells; host or cells: THP-1; assay: THP-1 assay: IL-1β release after LPS stimulation (assay for ICE inhibition); type: cell-based; conditions: LPS 1 ug/ml, 4 hr, ELISA; read-out: IC50 of reduction of IL1β release from THP1 cell line
Sequence (P29466 120-297 limits assumed): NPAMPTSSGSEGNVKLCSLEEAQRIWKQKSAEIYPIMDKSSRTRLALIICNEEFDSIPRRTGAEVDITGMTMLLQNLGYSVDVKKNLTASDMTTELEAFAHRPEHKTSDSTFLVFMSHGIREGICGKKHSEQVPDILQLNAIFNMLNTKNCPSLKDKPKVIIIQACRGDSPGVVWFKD
Sequence (P29466 317-404 limits assumed): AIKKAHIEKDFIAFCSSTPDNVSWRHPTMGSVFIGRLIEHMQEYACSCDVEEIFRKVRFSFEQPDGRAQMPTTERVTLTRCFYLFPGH
Your answer is read as nM, so omit the unit and give the number.

MOLECULE: CC(=O)N[C@@H](CC(=O)O)C(=O)N[C@H](C(=O)N[C@@H](CCC(=O)O)C(=O)NC(CC(=O)O)C(=O)c1nnc(-c2ccccc2)o1)C(C)C (stereo partly drawn) [CQ-0011]
IC50 (nM): 3000

Problem: Item CC(=O)N[C@@H](Cc1ccc(O)cc1)C(=O)N[C@H](C(=O)N[C@@H](C)C(=O)NC(CC(=O)O)C(=O)c1nnc(-c2ccccc2)o1)C(C)C (stereo partly drawn) [CQ-0010] has what recorded IC50?
Result: 300

Problem: IC50 lookup needed for CC(=O)N[C@@H](Cc1ccc(O)cc1)C(=O)N[C@H](C(=O)N[C@@H](C)C(=O)N[C@H](C=O)CC(=O)O)C(C)C [Ac-YVAD-CHO, reference compound] , thanks.
Result: 300

* * *

Known pIC50 of a selection of compounds
molecular target: ICE (Caspase 1) (Homo sapiens, UniProt P29466); construct: endogenous in cells; host or cells: THP-1; assay: Human whole blood assay: IL-1β release after LPS stimulation (assay for ICE inhibition); assay type: cell-based; conditions: LPS 10 or 100 ug/ml, 4 hr, ELISA, read-out: IC50 of reduction of IL1β release in whole blood assay
pIC50: −log10 of the molar value.

COMPOUND: CC(=O)N[C@@H](Cc1ccc(O)cc1)C(=O)N[C@H](C(=O)N[C@@H](C)C(=O)N[C@H](C=O)CC(=O)O)C(C)C [Ac-YVAD-CHO, reference compound]
pIC50: 6.30 to 6.52

Problem: What does the data say about its pIC50? Entry: CC(=O)N[C@@H](Cc1ccc(O)cc1)C(=O)N[C@H](C(=O)N[C@@H](C)C(=O)NC(CC(=O)O)C(=O)c1nnc(-c2ccccc2)o1)C(C)C (some centres unmarked)
Result: 6.30 to 6.52

* * *

molecular target: papain (Carica papaya)
Sequence (P00784 134-345): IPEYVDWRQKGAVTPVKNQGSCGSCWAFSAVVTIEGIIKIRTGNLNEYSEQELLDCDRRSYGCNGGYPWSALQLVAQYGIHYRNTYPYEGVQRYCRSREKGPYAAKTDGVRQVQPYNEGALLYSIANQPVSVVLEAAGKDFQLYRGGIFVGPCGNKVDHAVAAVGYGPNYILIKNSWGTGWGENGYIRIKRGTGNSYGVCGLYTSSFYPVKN
hey, just use T if measured Ki is less than 9000 nM, otherwise F

COMPOUND: CC(=O)N[C@@H](CC(C)C)C(=O)N[C@@H](CC(C)C)C(=O)N[C@H](C=O)CCCNC(=N)N [Leupeptin, reference compound]
TARGET DESC: papain (Carica papaya)
CLASS LABEL: T

Problem: Lab note: confirm whether the reported Ki for this compound is below 9000 nM, equality not counting. compound: CC(=O)N[C@@H](CC(C)C)C(=O)N[C@@H](CC(C)C)C(=O)NC(CCCN=C(N)N)C(=O)c1noc(C)n1 (some centres unmarked) [CQ-0008]
Result: T

Problem: For the compound CC(=O)N[C@@H](CC(C)C)C(=O)N[C@@H](CC(C)C)C(=O)NC(CCCN=C(N)N)C(=O)c1nnc(-c2ccccc2)o1 (some centres unmarked) [CQ-0002] , is Ki under 9000 nM?
Result: T

Problem: Is Ki strictly under 9000 nM for the entry CC(=O)N[C@@H](CC(C)C)C(=O)N[C@@H](CC(C)C)C(=O)NC(C)C(=O)c1noc(C)n1 (some centres unmarked) [CQ-0004] ?
Result: F

Problem: Find out if reported Ki for Cc1cccc(Cc2nnc(C(=O)[C@@H](NC(=O)[C@H](Cc3ccccc3)NC(=O)[C@@H](CC(=O)O)CC(C)C)C(C)C)o2)c1 [CM-0019B] is less than 9000 nM
Result: T

* * *

molecular target: cathepsin B (Homo sapiens)
pKi: −log10 of the molar value.
Decide by pKi: equal to or exceeding 6 means rule met, less means rule not met.

Examples from the recorded data:
COMPOUND: CC(=O)N[C@@H](CC(C)C)C(=O)N[C@@H](CC(C)C)C(=O)N[C@H](C=O)CCCNC(=N)N [Leupeptin, reference compound]
TARGET DESC: cathepsin B (Homo sapiens)
CLASS LABEL: rule met
//
COMPOUND: Cc1cccc(Cc2nnc(C(=O)[C@@H](NC(=O)[C@H](Cc3ccccc3)NC(=O)[C@@H](CC(=O)O)CC(C)C)C(C)C)o2)c1 [CM-0019B]
TARGET DESC: cathepsin B (Homo sapiens)
CLASS LABEL: rule not met
//
COMPOUND: CC(=O)N[C@@H](CC(C)C)C(=O)N[C@@H](CC(C)C)C(=O)NC(C)C(=O)c1noc(C)n1 (some centres unmarked)
TARGET DESC: cathepsin B (Homo sapiens)
CLASS LABEL: rule not met

Here's the next entry for you.
Problem: Reported pKi reaches at least 6 for CC(=O)N[C@@H](CC(C)C)C(=O)N[C@@H](CC(C)C)C(=O)NC(CCCN=C(N)N)C(=O)c1nnc(-c2ccccc2)o1 (some centres unmarked) ?
Result: rule met

Measured values drawn from patent US6004933A for this set.
